The values you see were collected from PubChem BioAssay.

# Lookup of reported inhibition keyed by entry
experiment: inhibitors of TNFa-induced NFkB p65 translocation, primary screen, imaging, HUVEC, MLSMR starter and 10KST1 sets (AID 438); settings: HUVEC TNFa-induced p65 nuclear translocation; at 2 µM, active compounds read high, 0% TNFa-plus-vehicle, 100% no-TNFa wells;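 also: compound added about 3h40 before a 20 min TNFalpha stimulation; signal is the nuclear over cytoplasmic p65 intensity ratio per well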
Recorded Endpoint: inhibition (%)

Cc1cc(C(=O)O)ccc1-n1c(C)ccc1C
-3.7
CCCCn1c(CN2CCN(c3ccc(F)cc3)CC2)nc2c1c(=O)n(C)c(=O)n2C
14.4
OC(CNCCc1ccccc1)c1ccccc1 (stereo unspecified)
11
Cc1cc2c(c(=O)n1C)C(Cc1ccccc1)C(C#N)=C(N)O2 (stereo unspecified)
-20.7
COc1ccccc1N1CCN(C(=O)c2cc(-c3ccc(Cl)c(Cl)c3)on2)CC1
5.1
O=C(NCc1ccc2c(c1)OCO2)C1CCC(CNc2c(N3CCCCC3)c(=O)c2=O)CC1 (stereo unspecified)
6.8
C=CCN(CC=C)C(=O)Nc1cc(Cl)ccc1OC
0.5
CCC(C)(C(=O)NC1CCCC1)N(Cc1cccs1)C(=O)Cc1cccs1 (stereo unspecified)
-0.9
O=C(Nc1ccc(NC(=O)C2CC2)cn1)c1ccccc1Cl
2.6
O=C(CN1C(=O)CC(c2ccco2)Sc2ccccc21)Nc1ccc2c(c1)OCCO2 (stereo unspecified)
-2.8
O=c1oc2c3c4c(cc2cc1-c1nc2ccccc2[nH]1)CCCN4CCC3
5.9
